Hey, just so you know, these numbers are from patent US20240002497A1.

Reported pEC50 values are given for each entry in this list.
target: T1, huNav1.7α (HEKa) (human, UniProt Q15858 1-1988); assay: binding FACS, HEKa cells
T1 construct: also called HEKa huNav1.7α
pEC50: −log10 of the molar value.
measurement_type: pEC50

F010301659 (VHH) VHH: EVQLVESGGGLVQPGGSLRLSCAASVRPFSTSAMGWFRQAPEKEREAVAAILWNGIVTYYADSVKGRFTISRDNAKNEVYLQMNKLKPEDTAVYYCALDRAYGGRSFSAYEYEYWGQGTLVTVSS : 7.96
F010301662 (VHH) VHH: EVQLVESGGGLVQPGGSLRLSCAASVRPFSTSAMGWFRQAPEKEREAVAGILWNGIVTYYADSVKGRFTISRDNAKNEVYLQMNKLKPEDTAVYYCALDRAYQGRSFSAYEYEYWGQGTLVTVSS : 7.72
F010301658 (VHH) VHH: EVQLVESGGGLVQPGGSLRLSCAASVRPFSTSAMGWFRQAPEKEREAVAAILWNGIVTYYADSVKGRFTISRDNAKNEVYLQMNKLKPEDTAVYYCALDRAYQGRSFSAKEYEYWGQGTLVTVSS : 7.64
F010301657 (VHH) VHH: EVQLVESGGGLVQPGGSLRLSCAASVRPFSTSAMGWFRQAPEKEREAVAGILWNGIVTYYADSVKGRFTISRDNAKNEVYLQMNKLKPEDTAVYYCALDRAYQGRSFSAKEYEYWGQGTLVTVSS : 7.70
F010301663 (VHH) VHH: EVQLVESGGGLVQPGGSLRLSCAASVRPFSTSAMGWFRQAPEKEREAVAGILWNGIVTYYADSVKGRFTISRDNAKNEVYLQMNKLKPEDTAVYYCALDRAYGGRSFSAKEYEYWGQGTLVTVSS : 7.89
F010301661 (VHH) VHH: EVQLVESGGGLVQPGGSLRLSCAASVRPFSTSAMGWFRQAPEKEREAVAAILWNGIVTYYADSVKGRFTISRDNAKNEVYLQMNKLKPEDTAVYYCALDRDYGGRSFSAKEYEYWGQGTLVTVSS : 7.80
F010301665 (VHH) VHH: EVQLVESGGGLVQPGGSLRLSCAASVRPFSTSAMGWFRQAPEKEREAVAAILWNGIVTYYADSVKGRFTISRDNAKNEVYLQMNKLKPEDTAVYYCALDRAYGGRSFSAKEYEYWGQGTLVTVAA : 8.06
F010301664 (VHH) VHH: EVQLVESGGGLVQPGGSLRLSCAASVRPFSTSAMGWFRQAPEKEREAVAGILWNGIVTYYADSVKGRFTISRDNAKNEVYLQMNKLKPEDTAVYYCALDRDYQGRSFSAKEYEYWGQGTLVTVSS : 7.89
F0103362B08 (VHH, entry includes the FLAG-HIS6 tag; also called F0103362B08 (parental)-FLAG-HIS6) VHH: EVQLVESGGGLVQAGGSLRLSCAASVRPFSTSAMGWFRQAPEKEREAVAGILWNGIVTYYADSVKGRFTISRDNAKNEVYLQMNKLKPEDTAVYYCALDRDYGGRSFSAYEYEYWGQGTLVTVSS : 7.72
F010301666 (VHH) VHH: EVQLVESGGGLVQPGGSLRLSCAASVRPFSTSAMGWFRQAPEKEREAVAAILWNGIVTYYADSVKGRFTISRDNAKNEVYLQMNKLKPEDTAVYYCALDRDYQGRSFSAKEYEYWGQGTLVTVSS : 8.00
